These measurements were taken from paper PMC11369174.

TARGET OR SYSTEM: T1, GABARAPL1 ATG8 domain (human)
T1 construct: GABARAPL1, human, ATG8 domain; source: E. coli BL21 (DE3) Gold, purified (glutathione or Ni2+ beads)
PROTOCOL: fluorescence polarisation; saturation binding: dilution series of the protein domain added to 10 nM FITC-labelled peptide; 50 mM sodium phosphate pH 7.4, 0.05% Tween (protein dialysed in 50 mM sodium phosphate with 1 mM DTT; CASK kinase domain with 100 mM NaCl in addition); quadratic fit; technical triplets
STUDY CONDITIONS: both partners purified
Where no end group is shown, it is not given here.
VALUE TYPE: pKd
Scale: pKd equals -log10([C]), with [C] in mol/L.

Memo: DDDWTHLSSK (also: FITC label, position not given here) [FITC-SQSTM1] , reported pKd: 5.43
